// provenance: ChEMBL document CHEMBL2331543

We begin with a simple list: items and their reported pIC50.
- target.desc: Carbonic anhydrase 9 (Homo sapiens, UniProt Q16790)
- assay.name: Inhibition of recombinant human carbonic anhydrase 9 after 15 mins by stopped flow CO2 hydration assay
Answer as the number alone; pIC50 is minus log10 of concentration in mol/L.

Completed entries (count: 3):
- mol.smiles: "Nc1ccc(Nc2nnc(-c3cccc(S(N)(=O)=O)c3)c3ccccc23)cc1"
  target.desc: "Carbonic anhydrase 9 (Homo sapiens, UniProt Q16790)"
  endpoint.value: 7.55
- mol.smiles: "COc1cccc(-c2nnc(Nc3ccc(S(N)(=O)=O)cc3)c3ccccc23)c1"
  target.desc: "Carbonic anhydrase 9 (Homo sapiens, UniProt Q16790)"
  endpoint.value: 5.41
- mol.smiles: "Cc1cc(-c2nnc(Nc3ccc(S(N)(=O)=O)cc3)c3ccccc23)ccc1S(N)(=O)=O"
  target.desc: "Carbonic anhydrase 9 (Homo sapiens, UniProt Q16790)"
  endpoint.value: 8.48

Entry `CC(C)(C)c1ccc(Nc2nnc(-c3cccc(S(N)(=O)=O)c3)c3ccccc23)cc1` , pIC50 reported as 7.54
